Please find below pIC50 data on Vascular endothelial growth factor receptor 2 (Homo sapiens, UniProt P35968) compiled from the literature.
pIC50: −log10 of the molar value.
measuredParameter: pIC50

Cn1c(SCc2cn([C@@H]3OC[C@@H](O)[C@H](O)[C@H]3O)nn2)nc2ccccc2c1=O; 5.49

P = Cc1nn(C(Nc2ccccc2)c2ccccc2)c(O)c1N=Nc1ccccc1 (stereo not shown)
Q = CC(=O)c1cc(F)cc([N+](=O)[O-])c1OS(=O)(=O)c1ccc(OC(F)(F)F)cc1
Lower value of pIC50 belongs to which: P or Q ? Give the label of your selection. Q

----------
Literature survey of pIC50 (system: Vascular endothelial growth factor receptor 2 (Homo sapiens, UniProt P35968)).
pIC50: −log10 of the molar value.
measuredParameter: pIC50

CC(=O)O[C@@H]1[C@@H](OC(C)=O)[C@H](OC(C)=O)CO[C@H]1n1cc(CSc2nc3ccccc3c(=O)n2-c2ccccc2)nn1; 4.55
CC(=O)c1cc(Cl)cc([N+](=O)[O-])c1OS(=O)(=O)c1ccccc1F; 4.46
COc1ccc(S(=O)(=O)Oc2c(C(C)=O)cc(C)cc2[N+](=O)[O-])cc1; 4.62

A = O=c1c2ccccc2nc(SCc2cn([C@@H]3O[C@H](CO)[C@H](O)[C@H](O)[C@H]3O)nn2)n1-c1ccccc1
B = Cc1nc2sccn2c1C(=O)NN=C1C(=O)Nc2ccc(F)cc21
API: POST /compare with A and B ; response names the item with higher pIC50. Reply with the label of the item you choose. B
(B: 5.41, A: 4.65)
